# experiment summary: yeast display, Sf9 membrane polyspecificity reagent, FACS + sequencing; frameworks hold sequencing errors
measured quantity: polyreactivity (PSR sort gate)

Give the measured polyreactivity (PSR sort gate) for QVQLVESGGGLVQAGGSLRLSCAASGRIFRRNTMGWYRQAPGKERELVAAITSSGGSTYADSVKGRFTISRDNAKNTVYLQMNSLKPEDTAVYYCAAVRLYRYDYWGQGTQVTVSS
low polyreactivity

Give the measured polyreactivity (PSR sort gate) for QVQLVESGGGLVQAGGSLRLSCAASGRTLVYYAMGSYRQSPGKERELVAAISWSGSRTYYADSVKGRFTISRDNAKNTVYLQMNSLKPEDTAVYYCATLTFRTNGTMDYWGQGTQVTVSS
high polyreactivity

Give the measured polyreactivity (PSR sort gate) for QVQLVESGGGLVQAGGSLRLSCAASGRILWSYAMGWYRQAPGKERELVASISGRGGSTYYADSVKGRFTISRDNAKNTVYLQMNSLKPEDTAVYYCAAYRLRFWSMDYWGQGTQVTVSS
high polyreactivity

Give the measured polyreactivity (PSR sort gate) for QVQLVESGGGLVQAGGSLRLSCAAYGSIFRVYAMGWYREAAGKERELVATISWSAGSTYYADSVKGRFTISRDNAKNTVYLQMNSLKPEDTAVYYCAADPVGYYDPSDYWGQGTQVTVSS
low polyreactivity

Give the measured polyreactivity (PSR sort gate) for QVQLVESGGGLVQAGGSLRLSCAASGRIFTIYAMGWYRQAPGKERELVAAITRGGNTNYADSVKGRFTISRDNAKNTVYLQMNSLKPEDTAVYYCAARANVYTKKRDYWGQGTQVTVSS
high polyreactivity

Continuing:
Give the measured polyreactivity (PSR sort gate) for QVQLVESGGGLVQAGGSLRLSCAASGRTFGVYMGWYRQAPGKERELVAVISSGDSTNYADSVKGRFTISRDNAKNTVYLQMNSLKPEDTAVYYCNAYGSDRLTLDDYWGQGTQVSVSS
low polyreactivity

Give the measured polyreactivity (PSR sort gate) for QFQLVESGGGLVQAGGSLRLSCAASGLIFRHYVMGWYRQAPGKERELVAAITSRGGTTYYADSVKGRFTISRDNEKNTVYLQMNIMKPEDTAVYYCNAVDIDPTRYEYDYWGQVTQVTVSS
high polyreactivity

Give the measured polyreactivity (PSR sort gate) for QVQLVESGGGLVQAGGSLRLSCAASGFTFYSYDMGWYRQAPGKERELVAAITWSGGSTYYADSVKGRFTISRDNAKNTVYLQMNSLKPEDTAVYYCAAELFPLQHFWVAYATRRYDYWGQGTQVTVSS
low polyreactivity

Give the measured polyreactivity (PSR sort gate) for QVQLVESGGGLVQAGCSLRLSCAASGRTFSSYAMGWYRQSPGKERELVAAINRGGGSTYYADSVKGRFTISRDNAKNTVYLQMNSLKPEDTAVYYCNARSKRTYEYDYWGQGTQVTVSS
high polyreactivity

Give the measured polyreactivity (PSR sort gate) for QVQLVESGGGLVQAGGSLRLSCAASGSTLHLYAMGWYRQAPGKERELVADITSGGDTYYADSVKGRFTISRDNAKNTVYLQMNSLKPEDTAVYYCNAVYEGRYEYAYYYRYDYWGQGTQVTLSS
high polyreactivity

Give the measured polyreactivity (PSR sort gate) for QVQLVESGGGIVHAGGSLRLSCAASGSTFDSYARGWYRQAPGKERELVAAITDSGSSTYYADSVKGRFTISRDNAKNTVYLQMNSLKPEDSAVYYCANYDYHGWSYYRYDYWGQGTQVTVSS
low polyreactivity
